# maps each entry to its IC50
Target under test: recombinant human HDAC6 (Homo sapiens (Human), UniProt Q9UBN7)
Sequence (Q9UBN7 whole entry): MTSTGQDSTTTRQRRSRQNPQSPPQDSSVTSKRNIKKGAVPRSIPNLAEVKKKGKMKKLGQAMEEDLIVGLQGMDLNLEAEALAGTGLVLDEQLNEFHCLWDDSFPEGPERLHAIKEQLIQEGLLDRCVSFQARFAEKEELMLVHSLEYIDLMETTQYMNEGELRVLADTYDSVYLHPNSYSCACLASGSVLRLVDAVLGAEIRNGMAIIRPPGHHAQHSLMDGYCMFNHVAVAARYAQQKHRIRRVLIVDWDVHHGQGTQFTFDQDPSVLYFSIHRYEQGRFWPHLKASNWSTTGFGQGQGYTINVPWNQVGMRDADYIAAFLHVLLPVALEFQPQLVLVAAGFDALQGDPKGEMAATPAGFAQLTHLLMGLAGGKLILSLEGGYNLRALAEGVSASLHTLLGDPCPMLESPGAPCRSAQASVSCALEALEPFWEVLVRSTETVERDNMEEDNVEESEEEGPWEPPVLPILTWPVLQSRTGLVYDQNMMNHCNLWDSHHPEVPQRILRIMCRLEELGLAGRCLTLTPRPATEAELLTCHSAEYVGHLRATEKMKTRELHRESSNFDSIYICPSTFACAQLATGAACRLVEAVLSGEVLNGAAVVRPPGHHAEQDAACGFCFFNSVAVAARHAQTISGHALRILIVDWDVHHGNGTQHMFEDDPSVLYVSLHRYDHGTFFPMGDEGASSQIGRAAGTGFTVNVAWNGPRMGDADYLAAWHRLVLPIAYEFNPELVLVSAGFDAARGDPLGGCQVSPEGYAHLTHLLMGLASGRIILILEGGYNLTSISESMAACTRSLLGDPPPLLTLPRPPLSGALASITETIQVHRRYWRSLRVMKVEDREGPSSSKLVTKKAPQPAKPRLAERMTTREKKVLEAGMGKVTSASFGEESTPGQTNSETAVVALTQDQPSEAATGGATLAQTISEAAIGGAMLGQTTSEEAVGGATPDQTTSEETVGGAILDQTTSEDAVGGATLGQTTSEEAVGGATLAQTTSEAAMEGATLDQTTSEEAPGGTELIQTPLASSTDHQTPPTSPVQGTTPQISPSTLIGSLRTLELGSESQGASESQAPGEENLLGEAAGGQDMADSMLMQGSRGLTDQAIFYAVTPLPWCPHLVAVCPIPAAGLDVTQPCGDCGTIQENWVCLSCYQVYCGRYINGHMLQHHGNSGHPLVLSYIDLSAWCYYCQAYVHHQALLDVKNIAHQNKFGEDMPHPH
Measurement protocol: Enzymatic screening, HDAC6 inhibition (fluorogenic FdL_G substrate)
Answer format: numeric, nM implied, no suffix.

Known results for compounds:
// assay recombinant human HDAC6 (Homo sapiens (Human), UniProt Q9UBN7), entry `O=C1NCc2ccc(-c3cn(Cc4ccc(-c5nnc(C(F)F)o5)cc4)cn3)cc21` , IC50 value = 78

// assay recombinant human HDAC6 (Homo sapiens (Human), UniProt Q9UBN7), entry `Fc1c(Cn2nnc(-c3cccc(-c4nc5c([nH]4)CCNC5)c3)n2)ccc(-c2nnc(C(F)F)o2)c1F` , IC50 value = 62

// assay recombinant human HDAC6 (Homo sapiens (Human), UniProt Q9UBN7), entry `FC(F)c1nnc(-c2ccc(Cn3cc(-c4ccc5[nH]c(N6CCOCC6)nc5c4)nn3)cc2)o1` , IC50 value = 87

// assay recombinant human HDAC6 (Homo sapiens (Human), UniProt Q9UBN7), entry `FC(F)c1nnc(-c2ccc(Cn3nnnc3-c3cccc(-n4cccn4)c3)cc2)o1` , IC50 value = 203

// assay recombinant human HDAC6 (Homo sapiens (Human), UniProt Q9UBN7), entry `Nc1cccc(-c2cn(Cc3c(F)cc(-c4nnc(C(F)F)o4)cc3F)nn2)c1` , IC50 value = 37

// assay recombinant human HDAC6 (Homo sapiens (Human), UniProt Q9UBN7), entry `O=C1CCc2c1cccc2-c1nnn(Cc2ccc(-c3nnc(C(F)F)o3)cc2)n1` , IC50 value = 132

// assay recombinant human HDAC6 (Homo sapiens (Human), UniProt Q9UBN7), entry `Nc1ccc(-c2cn(Cc3ccc(-c4nnc(C(F)F)o4)cc3Cl)nn2)cn1` , IC50 value = 52

// assay recombinant human HDAC6 (Homo sapiens (Human), UniProt Q9UBN7), entry `NC(=O)c1cccc(-c2cn(Cc3ccc(-c4nnc(C(F)F)o4)cc3)cn2)c1` , IC50 value = 161

// assay recombinant human HDAC6 (Homo sapiens (Human), UniProt Q9UBN7), entry `FC(F)c1nnc(-c2ccc(Cn3cc(-c4ccc5nc(Cl)[nH]c5c4)nn3)cc2)o1` , IC50 value = 53

// assay recombinant human HDAC6 (Homo sapiens (Human), UniProt Q9UBN7), entry `Nc1ncc2cc(-c3nnn(Cc4ccc(-c5nnc(C(F)F)o5)cc4)n3)ccc2n1` , IC50 value = 186

Next:
// assay recombinant human HDAC6 (Homo sapiens (Human), UniProt Q9UBN7), entry `CCNc1nc2ccc(-c3cn(Cc4ccc(-c5nnc(C(F)F)o5)cc4)nn3)cc2[nH]1` , IC50 value = 26

// assay recombinant human HDAC6 (Homo sapiens (Human), UniProt Q9UBN7), entry `CN(Cc1ccncc1)Cc1ccc(-c2nnn(Cc3c(F)cc(-c4nnc(C(F)F)o4)cc3F)n2)cc1` , IC50 value = 115

// assay recombinant human HDAC6 (Homo sapiens (Human), UniProt Q9UBN7), entry `Cn1c(N)nc2cc(-c3nnn(Cc4ncc(-c5nnc(C(F)F)o5)cn4)n3)ccc21` , IC50 value = 27

// assay recombinant human HDAC6 (Homo sapiens (Human), UniProt Q9UBN7), entry `Cn1c(N)nc2cc(-c3cnn(Cc4ccc(-c5nnc(C(F)F)o5)cn4)c3)ccc21` , IC50 value = 28

// assay recombinant human HDAC6 (Homo sapiens (Human), UniProt Q9UBN7), entry `O=C(Nc1cc(-c2nnn(Cc3c(F)cc(-c4nnc(C(F)F)o4)cc3F)n2)ccc1OC(=O)N1CCOCC1)N1CCOCC1` , IC50 value = 107

// assay recombinant human HDAC6 (Homo sapiens (Human), UniProt Q9UBN7), entry CS(=O)(=O)NCCC(c1ccc(-c2nnc(C(F)F)o2)cc1)c1cn(-c2ccc(N)nc2)nn1 (stereo not shown) , IC50 value = 27
